# target: κ receptors (Cavia porcellus, UniProt P41144)
# Sequence (P41144 whole entry): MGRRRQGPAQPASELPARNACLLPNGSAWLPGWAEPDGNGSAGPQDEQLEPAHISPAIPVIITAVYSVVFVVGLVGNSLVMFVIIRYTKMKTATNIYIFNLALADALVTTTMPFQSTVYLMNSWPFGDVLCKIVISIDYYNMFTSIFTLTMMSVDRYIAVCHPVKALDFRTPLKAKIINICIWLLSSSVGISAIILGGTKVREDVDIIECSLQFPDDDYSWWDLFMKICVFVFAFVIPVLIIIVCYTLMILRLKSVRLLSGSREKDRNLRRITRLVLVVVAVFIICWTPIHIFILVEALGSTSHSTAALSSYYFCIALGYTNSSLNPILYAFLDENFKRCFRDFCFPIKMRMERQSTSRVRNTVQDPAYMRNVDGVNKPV
# condition: read-out: K1 (nM) ± SEM K1 (κ); displacement of [3H]U69,593 (1.2-[…]), guinea pig brain membranes
quantity: Ki (nM)
Record the value in nM, omitting the unit from your answer.

[
  {
    "compound": "Oc1ccc2c3c1O[C@H]1c4[nH]c5ccccc5c4C[C@@]4(O)[C@@H](C2)N(CC2CC2)CC[C@]314 [naltrindole]",
    "Ki / nM": 35.8
  }
]

Consider the additional compound presented here.
Ki reported for this compound Oc1ccc2c3c1O[C@H]1c4ncc(-c5ccc(Cl)cc5)cc4C[C@@]4(O)[C@@H](C2)N(CC2CC2)CC[C@]314 [Compound 6d] : 20
